Assay: Nuclear factor erythroid 2-related factor 2/antioxidant responsive element (Nrf2/ARE) small molecule agonists: luciferase reporter gene qHTS assay in human keratinocytes (AID 1919969); also: nearly all actives have a fitted effect of over 35% in size
Conditions: KeratinoSens HaCaT ARE-luciferase, luminescence, 24 h; series mostly up to 92.4 µM
Results filed as inconclusive are left out. Activity calls are given as the source filed them. Calls follow the shape of the full dose curve.
measured_metric: outcome

Reference set (4 entries):
• c1ccc(Oc2ccccc2)cc1 = inactive
• Clc1ccc(Cl)c(Cl)c1Cl = inactive
• Cc1c(C(N)=O)cc([N+](=O)[O-])cc1[N+](=O)[O-] = inactive
• CCOC(=O)/C=C\C(=O)OCC = inactive

// query Recorded outcome for COc1ccc([N+](=O)[O-])cc1N , please?
// result inactive

// query Recorded outcome for C[Si](C)(C)O[Si](C)(C)C , please?
// result inactive

// query Recorded outcome for Clc1ccccn1 , please?
// result inactive

// query Recorded outcome for CN(C)CCOCCN(C)C , please?
// result inactive

// query Recorded outcome for Cc1ccc(C)c(O)c1 , please?
// result inactive

// query Recorded outcome for CCCCCCCCCCCCCCCC(=O)OC(C)C , please?
// result inactive

// query Recorded outcome for CCc1cccc(CC)c1N , please?
// result inactive

// query Recorded outcome for O=C(O)c1ccccc1C(=O)O , please?
// result inactive

// query Recorded outcome for C[C@@H](O)[C@H]1C(=O)N2C(C(=O)O)=C(S[C@@H]3CN[C@H](C(=O)N(C)C)C3)[C@H](C)[C@H]12 , please?
// result inactive

// query Recorded outcome for CCN(CC)CCOC(=O)c1ccc(N)cc1 , please?
// result inactive
